Recorded polymerase ribozyme fitness (log ratio), one value per entry.
B1: TPR t1 (parent)
chain: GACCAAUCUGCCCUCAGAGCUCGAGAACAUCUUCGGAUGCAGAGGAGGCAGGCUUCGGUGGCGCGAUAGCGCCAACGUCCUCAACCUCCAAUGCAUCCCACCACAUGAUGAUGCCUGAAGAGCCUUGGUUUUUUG

Variants of: B1
Test: polymerase ribozyme fitness, log enrichment relative to wild type (log ratio); higher = more active; in vitro selection for triplet polymerase activity
Format: numeric value only, no unit, no commentary.

GACCAAUCUGCCCUCAGAGCUCGAGAACAUCUUCGGAUGCAGAAGAGGCAGGCUUCGGUGGCGCGAUAGCGCCAACGUCCUCAACCUCCAAUGCAUCCCACCACAUGAUGCUGCCUGAAGAGCCUUGGUUGUUUG [G44A A111C U131G]	-2.35
GACCAAUCUGCCCUCAGAGCUCGAGAACAUCUUCGGAUGCAGAGGAGGCAAGCUUCGGUGGCGCGAUAGCGCCAACGUCCUCAACCUCCAAUGCAUCCCACCACAUGAUGAUGCCUGAAGAGCCUUAGUUUUUUG [G51A G127A]	-3.6
GACCAAUCUGCCCUCAGAGCUCGAGAACUUCUUCGGAUGCAGAGGAGGCAGGCUUCGGUGGCGCGAUAGCGCCAACGUCCUCAACCUCCAAUGCAUCCCACCACAUGAUGAUGCCUCAAGAGCCUUGGUUUUUUG [A29U G117C]	-3.48

Query block: Input GACCAAUCUGCCCUCAGAGCUCGAGAACAUCUUCGGAUGCAGAGGAGGCAGGCUUCGGUGGCGCGAUAGCGCCAACGUCCUCAACCUCGAAUGCAUCCCACCACAUGAUGAUCCCUGAAGAUCCUUGGUUUUUUG [C89G G113C G122U] , output reported polymerase ribozyme fitness (log ratio).
Result block: -2.99

Query block: Input GACCUAUCUGCCCUCAGAGCUCGAGAACAUCUUCGGAUGCAGAGGAGGCAGGCUUCGGUGGCGCGAUAGCGCCAACGUCCUCAACCUCCAAUGCAUCCCACCACAUGAUGAUGCCUGAAGAGCCUUGGUUAUUUG [A5U U131A] , output reported polymerase ribozyme fitness (log ratio).
Result block: -2.48

Query block: Input GACCAAUCUGCCCUCAGAGCUCGAGAACAUCUUCGGAUGCAGAGGAGGCAGGCUUCGGUGGCGCGAUAUCGCCAACGUCCUCAACCUCCAAUGCAUCCCACCACAUGAUGAUGCCUGAAGAGCCUUGGUAUUUUG [G69U U130A] , output reported polymerase ribozyme fitness (log ratio).
Result block: -0.136
